Where do these numbers come from? They come from PubChem BioAssay (NCI).

Tested on: HT29 colon
Experiment: NCI tumour cell line growth inhibition, 48 h
readout.type: TGI (µM)
Answers are plain numbers, in µM.

The cases that follow already have their TGI on record.
O=C1C=CC(=O)C1(Br)Br = 32.7
Cc1cc(C)c2c(n1)S(=O)(=O)N(CCCN1CCN(c3cccc(C(F)(F)F)c3)CC1)/C(=C(\O)c1ccccc1)C2=O = 43.9
CCCCCCOc1ccc(NC2=C(Cl)C(=O)c3cccnc3C2=O)cc1 = 6.66

Kindly consider the entry below.
// query TGI value for entry NC(=O)c1[nH]nc(C2OC(CO)C(O)C2O)c1O (configuration not stated) 3420

###

System: SW-620 colon
Experiment: NCI tumour cell line growth inhibition, 48 h
Exercise: state measured TGI for each of the compounds provided.

Consider the following illustrative entries.
CCSc1nc2sc(C)c(C)c2c(=O)n1-c1ccc(C(=O)O)cc1 = > 100 µM
Oc1[nH]c2ccccc2c1N=NC1=NCCCCN1 = > 100 µM
COc1ccc(/C(Cl)=C(\C=O)c2ccc(F)cc2)cc1 = > 100 µM
Clc1ccc(OCc2nnc3sc(-c4ccc(-c5ccc(Cl)cc5Cl)o4)nn23)c(Cl)c1 = > 100 µM

Quick one: give me TGI for each item below, same order please.
1. OC1C(O)C(O)C(O)C(O)C1O (stereo unspecified)
2. O=C(Oc1ccc([N+](=O)[O-])cc1)N1CCN(Cc2cccc(Oc3ccccc3)c2)CC1

1: > 1000 µM; 2: > 100 µM
